# TARGET: T1, human sortilin expressed on cells (human, UniProt Q99523 78-831)
# T1 construct: Transiently transfected HEK293T cells; also called Sortilin1; full-length Sortilin
# T1 sequence: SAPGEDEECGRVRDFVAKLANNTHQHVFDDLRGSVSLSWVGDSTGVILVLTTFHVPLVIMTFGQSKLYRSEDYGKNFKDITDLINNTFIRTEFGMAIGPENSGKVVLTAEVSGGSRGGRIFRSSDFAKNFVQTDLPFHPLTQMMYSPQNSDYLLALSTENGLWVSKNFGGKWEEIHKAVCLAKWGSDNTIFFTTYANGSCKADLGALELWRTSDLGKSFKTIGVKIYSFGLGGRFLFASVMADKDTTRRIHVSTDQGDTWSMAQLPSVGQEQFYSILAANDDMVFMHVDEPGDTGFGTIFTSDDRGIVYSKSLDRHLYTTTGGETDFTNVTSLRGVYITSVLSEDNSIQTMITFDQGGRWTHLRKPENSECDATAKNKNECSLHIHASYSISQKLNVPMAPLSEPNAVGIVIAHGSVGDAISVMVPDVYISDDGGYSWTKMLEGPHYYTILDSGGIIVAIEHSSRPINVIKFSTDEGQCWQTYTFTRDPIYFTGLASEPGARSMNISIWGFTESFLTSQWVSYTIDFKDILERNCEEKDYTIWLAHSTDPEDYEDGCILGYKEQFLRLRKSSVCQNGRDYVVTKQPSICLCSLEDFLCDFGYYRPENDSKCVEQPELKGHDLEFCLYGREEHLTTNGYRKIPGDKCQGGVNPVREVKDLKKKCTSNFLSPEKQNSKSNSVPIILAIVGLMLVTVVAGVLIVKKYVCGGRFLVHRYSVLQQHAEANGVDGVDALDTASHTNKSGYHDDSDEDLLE
# PROTOCOL_DESCRIPTION: FACS, blocking of biotinylated PGRN binding to sortilin-expressing HEK293T cells
PARAMETER: IC50

BINDER: QDRLDAPPPPAAPLPRWSGPIGVSWGLRAAAAGGAFPRGGRWRR (peptide, UniProt Q99523 34-77, looked up, domain: pro-domain; also called Sortilin1 pro-domain peptide; sortilin pro-peptide) [sortilin pro-domain peptide]
PARAMETER: IC50
RESULT: ~5.9 µM
